Measured On: T1, ATHB17Δ113 (Arabidopsis thaliana, UniProt Q8S9N6 SEQ:1-162)
T1 chain: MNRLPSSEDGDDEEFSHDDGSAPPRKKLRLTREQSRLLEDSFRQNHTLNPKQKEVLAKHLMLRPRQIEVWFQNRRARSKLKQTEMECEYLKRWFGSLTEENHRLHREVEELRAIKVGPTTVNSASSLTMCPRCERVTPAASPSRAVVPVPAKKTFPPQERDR
Experimental Protocol: SPR; Biacore 2000; kon 42.3e5, koff 880.6e-4
Experimental Parameters: chain copies: 2 (homodimer, inferred)
Excerpt: HD-Zip I and II proteins bind to similar cis elements (CAAT(N)ATTG) under in vitro conditions (Sessa et al., EMBO J 12:3507-3517, 1993); Meijer et al., Mol Gen Genet 263:12-21, 2000); Frank et al., Plant J Cell Molec Biol 15:413-421, 1998); Deng et al., Plant Mol Biol 49:601-610, 2002). […]
pKd: −log10 of the molar value.
Outcome Measure: pKd

>>> recorded_number("Class II oligo (BS2) (dsDNA) DNA 1: CAGACAATCATTGCGGC DNA 2: GCCGCAATGATTGTCTG")
7.69
